Values compiled from patent US20180339043A1.

- System: PD-L1 antibody
- EXPERIMENT SUMMARY: Peptide antibody dissociation ELISA (PD-L1 antibody)
- Type: binding
- CONDITION SET: pH 6.0 vs pH 7.2
Bridge positions count the residues as written; N and C are the ends. Peptide text beside a SMILES is read from it.
MEASURED QUANTITY: pH 6.0: pH 7.2 EC 50 ratio
Response field accepts a number only; no unit should be typed.

Incoming: # lookup: pH 6.0: pH 7.2 EC 50 ratio of CC[C@H](C)[C@@H]1NC(=O)[C@H](CC(=O)O)NC(=O)[C@H](C(C)C)NC(=O)[C@H](CCC(N)=O)NC(=O)[C@@H]2CCCN2C(=O)[C@H](CCC(=O)O)NC(=O)[C@H](Cc2ccc(O)cc2)NC(=O)[C@H](Cc2ccccc2)NC(=O)[C@H]([C@@H](C)O)NC(=O)[C@H](CO)NC(=O)[C@@H](NC(=O)[C@H](CC(C)C)NC(=O)CNC(=O)CN)CSSC[C@@H](C(=O)N[C@@H](Cc2ccc(O)cc2)C(=O)O)NC1=O [Peptide 29] (H-GGLCSTFYEPQVDICY-OH; disulfide 4-15)
Outgoing: 2.1
